# reported mass density; entries follow
# assay setup: 320.15 K; 100 kPa; Liquid; Vibrating tube method
Report only the number, with the unit kg/m3 understood.

Use these answered entries as a reference point.
[
  {
    "query smiles": "CCCC[N+](CCO)(CCO)CCO.O=S(=O)([N-]S(=O)(=O)C(F)(F)F)C(F)(F)F",
    "units text": "kg/m3",
    "mass density": 1437.6
  },
  {
    "query smiles": "CC[N+](CCO)(CCO)CCO.O=S(=O)([N-]S(=O)(=O)C(F)(F)F)C(F)(F)F",
    "units text": "kg/m3",
    "mass density": 1510.5
  },
  {
    "query smiles": "CC[N+](C)(C)CCOC.O=S(=O)([N-]S(=O)(=O)C(F)(F)F)C(F)(F)F",
    "units text": "kg/m3",
    "mass density": 1410.4
  },
  {
    "query smiles": "CC[N+](C)(CCO)CCO.O=S(=O)([N-]S(=O)(=O)C(F)(F)F)C(F)(F)F",
    "units text": "kg/m3",
    "mass density": 1495.4
  },
  {
    "query smiles": "CCCC[N+](C)(C)CC.O=S(=O)([N-]S(=O)(=O)C(F)(F)F)C(F)(F)F",
    "units text": "kg/m3",
    "mass density": 1352.3
  }
]

May I ask what mass density has been recorded for CC[N+](C)(C)CCCO.O=S(=O)([N-]S(=O)(=O)C(F)(F)F)C(F)(F)F ?
1444.2

May I ask what mass density has been recorded for C[N+](CCO)(CCO)CCO.O=S(=O)([N-]S(=O)(=O)C(F)(F)F)C(F)(F)F ?
1547

====

# assay setup: 310.15 K; 100 kPa; Liquid; Vibrating tube method
# reported mass density; entries follow
Report only the number, with the unit kg/m3 understood.

May I ask what mass density has been recorded for CCCC[N+](CCO)(CCO)CCO.O=S(=O)([N-]S(=O)(=O)C(F)(F)F)C(F)(F)F ?
1446.2

May I ask what mass density has been recorded for CC[N+](C)(C)CCOC.O=S(=O)([N-]S(=O)(=O)C(F)(F)F)C(F)(F)F ?
1419.7

May I ask what mass density has been recorded for CC[N+](C)(CCO)CCO.O=S(=O)([N-]S(=O)(=O)C(F)(F)F)C(F)(F)F ?
1504.4

====

# assay setup: 288.15 K; 100 kPa; Liquid; Concentric cylinders viscometry
Labelling: viscosity reported below 1000 mPa·s becomes fulfilled; at or above becomes not fulfilled.

Example cases with answers are listed next.
[
  {
    "query smiles": "C[N+](CCO)(CCO)CCO.O=S(=O)([N-]S(=O)(=O)C(F)(F)F)C(F)(F)F",
    "label class": "not fulfilled"
  },
  {
    "query smiles": "CC[N+](CCO)(CCO)CCO.O=S(=O)([N-]S(=O)(=O)C(F)(F)F)C(F)(F)F",
    "label class": "not fulfilled"
  },
  {
    "query smiles": "CCCC[N+](C)(C)CC.O=S(=O)([N-]S(=O)(=O)C(F)(F)F)C(F)(F)F",
    "label class": "fulfilled"
  },
  {
    "query smiles": "CC[N+](C)(C)CCOC.O=S(=O)([N-]S(=O)(=O)C(F)(F)F)C(F)(F)F",
    "label class": "fulfilled"
  },
  {
    "query smiles": "CCCC[N+](CCO)(CCO)CCO.O=S(=O)([N-]S(=O)(=O)C(F)(F)F)C(F)(F)F",
    "label class": "not fulfilled"
  },
  {
    "query smiles": "CC[N+](C)(C)CCCO.O=S(=O)([N-]S(=O)(=O)C(F)(F)F)C(F)(F)F",
    "label class": "fulfilled"
  }
]

Note: attention shifts to another entry.
Say whether its viscosity is strictly beneath 1000 mPa·s. Entry: CC[N+](C)(CCO)CCO.O=S(=O)([N-]S(=O)(=O)C(F)(F)F)C(F)(F)F
fulfilled
